Values compiled from patent US20240252677A1.

# assay: Cryo-TEM of dendrimersomes from glycerol-JDs, number of vesicle layers
# Type: physicochemical
# run parameters: vesicles with 3 layers
As shown below, each of these molecules has a reported Number of vesicle layers: 3 (count of vesicles) value.
// response body must contain only the number

CCCCCCCCCCCCOc1cc(OCCCCCCCCCCCC)cc(C(=O)OCC(C)(COC(=O)c2cc(OCCCCCCCCCCCC)cc(OCCCCCCCCCCCC)c2)C(=O)OC[C@H](COC(=O)c2cc(OCCOCCOCCOC)c(OCCOCCOCCOC)c(OCCOCCOCCOC)c2)OC(=O)c2cc(OCCOCCOCCOC)c(OCCOCCOCCOC)c(OCCOCCOCCOC)c2)c1 [Compound 2S, (3,5)-12G1-BMPA-GC-(S)-(3,4,5)-3EO-G1]; 9
CCCCCCCCCCCCOc1cc(OCCCCCCCCCCCC)cc(C(=O)OCC(COC(=O)C(C)(COC(=O)c2cc(OCCOCCOCCOC)c(OCCOCCOCCOC)c(OCCOCCOCCOC)c2)COC(=O)c2cc(OCCOCCOCCOC)c(OCCOCCOCCOC)c(OCCOCCOCCOC)c2)OC(=O)c2cc(OCCCCCCCCCCCC)cc(OCCCCCCCCCCCC)c2)c1 (racemic) [Compound 1rac, (3,5)-12G1-GC-(rac)-BMPA-(3,4,5)-3EO-G1]; 2

What value of Number of vesicle layers: 3 (count of vesicles) has been recorded for this entry: CCCCCCCCCCCCOc1cc(OCCCCCCCCCCCC)cc(C(=O)OC[C@H](COC(=O)C(C)(COC(=O)c2cc(OCCOCCOCCOC)c(OCCOCCOCCOC)c(OCCOCCOCCOC)c2)COC(=O)c2cc(OCCOCCOCCOC)c(OCCOCCOCCOC)c(OCCOCCOCCOC)c2)OC(=O)c2cc(OCCCCCCCCCCCC)cc(OCCCCCCCCCCCC)c2)c1 [Compound 1R, (3,5)-12G1-GC-(R)-BMPA-(3,4,5)-3EO-G1]
4

What value of Number of vesicle layers: 3 (count of vesicles) has been recorded for this entry: CCCCCCCCCCCCOc1cc(OCCCCCCCCCCCC)cc(C(=O)OC[C@@H](COC(=O)C(C)(COC(=O)c2cc(OCCOCCOCCOC)c(OCCOCCOCCOC)c(OCCOCCOCCOC)c2)COC(=O)c2cc(OCCOCCOCCOC)c(OCCOCCOCCOC)c(OCCOCCOCCOC)c2)OC(=O)c2cc(OCCCCCCCCCCCC)cc(OCCCCCCCCCCCC)c2)c1 [Compound 1S, (3,5)-12G1-GC-(S)-BMPA-(3,4,5)-3EO-G1]
3

What value of Number of vesicle layers: 3 (count of vesicles) has been recorded for this entry: CCCCCCCCCCCCOc1cc(OCCCCCCCCCCCC)cc(C(=O)OCC(C)(COC(=O)c2cc(OCCCCCCCCCCCC)cc(OCCCCCCCCCCCC)c2)C(=O)OC[C@@H](COC(=O)c2cc(OCCOCCOCCOC)c(OCCOCCOCCOC)c(OCCOCCOCCOC)c2)OC(=O)c2cc(OCCOCCOCCOC)c(OCCOCCOCCOC)c(OCCOCCOCCOC)c2)c1 [Compound 2R, (3,5)-12G1-BMPA-GC-(R)-(3,4,5)-3EO-G1]
5
